Each entry below carries its recorded EC50.
subject of test: T1, human PILRA, G78 variant, ectopically expressed on 293 cells (human, UniProt Q9UKJ1 20-303)
T1 construct: the cells are labelled G78; also called hA G78 OE; hA
method: flow cytometry, 293 cells expressing target
readout: EC50 (µg/mL)

>>> value_reported("D6 (antibody, V domains shown, second hybridoma campaign; same VH/VL as D8) VH: EVQLQQSGPELVKPGASVKMSCKASGYTFTDYYMDWVKQSHGESFEWIGRVNPYTGDSSYNQKFKGKATLTVDKSSNTAYLEFNSLTSEGSAVYYCARSDGYHYKYAMDYWGQGTSVTVSS VL: DVVMTQTPLSLPVSLGDQASISCRSSQSLVHSTGNTYLHWYLQKPGQSPNLLIYKISNRFSGVPDRFSGSGSGTDFTLKISRVEAEDLGVYFCSQSTHVPYTFGGGTKLEIK")
0.12
>>> value_reported("D1 (antibody, V domains shown, second hybridoma campaign) VH: QVQLQQSGVELARPGASVKLSCKASGYNFTSYGINWVKQRTGQGLEWIGKSYPTSGNNYYNEKFKGKATVTADKSSSTAYMELRSLTSEDSAVYFCGVWYGSLFAHWGQGTLVTVTA VL: DIVMTQSQKFMSTSVGDRVRVTCKASQNVGFNVAWYQQKPGQSPKVLIYSASYRYSGVPDRFTGSGSGTDFTLTITNVQSEDLAEYFCHQYNNFPFTFGSGTKLEIK")
0.3
>>> value_reported("A12 (antibody, V domains shown, phage campaign) VH: QVQLVQSGAEVKKPGASVKVSCKASGYNFNDYYIHWVRQAPGQGLEWMGWISAYNGNTNYAQKLQGRVTMTRDTSTSTVYMELSSLRSEDTAVYYCARDGWYCSSSSCYTGSDYWGQGTLVTVSS VL: DIQMTQSPSSLSASVGDRVTITCRASQSISNYLNWYQQKPGKAPKLLIYGASTLHSGVPSRFSGSGSGTDFTLTISSLQPEDFATYYCQQSYSTPFTFGPGTKVDIK")
0.4
